We begin with IC50 values for IRAK4 (Homo sapiens (Human), UniProt Q9NWZ3), as collected from the published literature.
metric-name: IC50 (nM)

CC(C)(O)c1cc2nn([C@H]3CC[C@@H](O)CC3)cc2cc1NC(=O)c1cccc(C(F)(F)F)n1 ... 6.9
CC(C)(O)CCc1cn(-c2cnc(-n3ncc4cc(C#N)cnc43)cc2NC2COCC2F)nn1 (stereo not shown) ... 5
CC(C)(O)[C@H](F)CNC(=O)c1cnc(-c2cnc3cc(Cl)cnn23)cc1NC1CC1 ... 3
COC(=O)N1CCCN(C2CCC(Nc3nc(Nc4cnn(C5CCOCC5)c4)nc4snc(C)c34)CC2)CC1 (stereo not shown) ... 7.9
Cn1cc(-c2ccc3[nH]c4ncnc(OCCN5CCOCC5)c4c3c2)cn1 ... 1040
C[C@H](F)CNc1cc(-c2cnn3cc(Cl)cnc23)ncc1C(=O)NC[C@@H](F)C(C)(C)O ... 6
Cc1cc(Nc2cc(N[C@H]3C[C@@H](C(C)(C)O)[C@H](O)[C@@H]3O)c(-c3ccc4ccccc4n3)cn2)cc(C)n1 (stereo in doubt) ... 3

[1] CC(C)Nc1cc(-n2ncc3cc(C#N)cnc32)ncc1-c1cc(C2CCOCC2)no1
[2] Cc1nc(N)nc(N[C@@H]2C[C@H](CO)[C@@H](O)[C@H]2O)c1-c1nc2ccccc2o1
// compare measured IC50, left 1 , right 2 , return larger Pick one and reply with its label.
2
(2: 992 nM, 1: 3 nM)
